Numbers sourced from patent US20090035322A1.

Catalogue of % Cytotoxicity (CDC, Daudi), 6 hour values
Assay target: T1, human CD20 (human, UniProt P11836 1-297)
T1 sequence: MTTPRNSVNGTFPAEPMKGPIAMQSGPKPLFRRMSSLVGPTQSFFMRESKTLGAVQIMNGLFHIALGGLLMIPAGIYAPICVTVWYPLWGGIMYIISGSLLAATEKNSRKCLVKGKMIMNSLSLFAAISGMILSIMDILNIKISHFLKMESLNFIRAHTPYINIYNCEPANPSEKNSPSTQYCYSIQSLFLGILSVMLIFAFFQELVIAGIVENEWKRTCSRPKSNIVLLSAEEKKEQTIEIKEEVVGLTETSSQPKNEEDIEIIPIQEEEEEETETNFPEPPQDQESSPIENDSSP
Protocol: cell-based or functional assay
The figure you give is taken to be in %; do not add the unit.

# annotated cases, reported % Cytotoxicity (CDC, Daudi), 6 hour shown
- 8G6-5 (antibody, V domains shown, Fully human IgG, constant region not specified; also called 8G6-5N) VH: EVQLAESGGDLVQSGRSLRLSCAASGITFHDYAMHWVRQPPGKGLEWVSGISWNSDYIGYADSVKGRFTISRDNAKKSLYLQMNSLRPDDTALYYCVKDFHYGSGSNYGMDVWGQGTTVTVSP VL: EIVMTQSPATLSMSPGERATLSCRASQSVSRNLAWYQQKVGQAPRLLISGASTRATGIPARFSGSGSGTEFTLTINSLQSEDFAVYYCQQSNDWPLTFGQGTRLEIK: 97.7
- rituximab (RITUXAN, IDEC Pharmaceuticals Corp.) (antibody, V domains shown) VH: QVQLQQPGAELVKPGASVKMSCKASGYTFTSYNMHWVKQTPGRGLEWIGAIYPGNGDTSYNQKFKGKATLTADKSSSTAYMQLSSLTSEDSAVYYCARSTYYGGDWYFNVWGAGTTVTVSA VL: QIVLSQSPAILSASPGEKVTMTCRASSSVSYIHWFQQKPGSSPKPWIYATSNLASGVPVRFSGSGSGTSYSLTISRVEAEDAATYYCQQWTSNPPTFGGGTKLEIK: 16

Turning to the following binder.
Entry 10F2-13 (antibody, V domains shown, Fully human IgG, constant region not specified; also called 10F2-13N; ab 10F2-13) VH: EEQLVESGGDLVQPGRSLRLSCAASGFTFHDYTMHWVRQAPGKGLEWVSGISWNSGSLGYADSVKGRFTISRDNAKKSLYLQMNSLRAEDTALYYCAKDPSYGSGSYHSYYGMDVWGQGTTVTVSS VL: EIVLTQSPATLSLSPGERATLSCWASQSISRYLVWYQQKCGQAPRLLIYEASKRATGIPVRFSGSGSGTDFTLTISSLESEDFAVYYCQQRFNWPLTFGGGTKVEIK has what % Cytotoxicity (CDC, Daudi), 6 hour?
98.5
